- SYSTEM_NAME: UniProt:Q13547
- Sequence (Q13547 whole entry): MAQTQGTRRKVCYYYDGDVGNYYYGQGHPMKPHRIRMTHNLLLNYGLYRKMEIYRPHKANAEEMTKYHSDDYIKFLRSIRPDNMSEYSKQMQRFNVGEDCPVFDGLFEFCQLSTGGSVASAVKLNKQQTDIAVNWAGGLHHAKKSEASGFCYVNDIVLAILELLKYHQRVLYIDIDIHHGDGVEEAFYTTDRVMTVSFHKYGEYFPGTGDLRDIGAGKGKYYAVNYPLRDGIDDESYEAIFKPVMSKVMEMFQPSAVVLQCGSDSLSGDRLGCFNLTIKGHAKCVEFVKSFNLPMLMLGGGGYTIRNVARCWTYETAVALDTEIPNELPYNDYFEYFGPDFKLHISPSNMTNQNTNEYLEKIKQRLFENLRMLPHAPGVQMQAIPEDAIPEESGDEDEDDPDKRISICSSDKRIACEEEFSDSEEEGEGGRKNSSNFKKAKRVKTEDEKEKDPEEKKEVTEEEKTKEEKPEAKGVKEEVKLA
- ASSAY_DETAILS: Inhibition of full length human recombinant C-terminal FLAG/His-tagged HDAC1 expressed in baculovirus infected sf9 cells using fluorogenic HDAC substrate 3 after 30 mins by fluorescence assay
For each entry below, report its pIC50 value.
Scale: pIC50 equals -log10([C]), with [C] in mol/L.

The observed pIC50 for CCCc1nn(C)c2c(=O)[nH]c(-c3cc(C(OC)c4ccc(C(=O)NO)cc4)ccc3OCC)nc12 (stereo not given) when tested with UniProt:Q13547 stands at 6.45

The observed pIC50 for "CCCc1nn(C)c2c(=O)[nH]c(-c3cc(Cc4ccc(C(=O)NO)s4)ccc3OCC)nc12" when tested with UniProt:Q13547 stands at 6.46

The observed pIC50 for "CCCc1nn(C)c2c(=O)[nH]c(-c3cc(Cc4ccc(C(=O)NO)c(F)c4)ccc3OCC)nc12" when tested with UniProt:Q13547 stands at 5.95

The observed pIC50 for "CCCc1nn(C)c2c(=O)[nH]c(-c3cc(Cc4ccc(C(=O)NO)o4)ccc3OCC)nc12" when tested with UniProt:Q13547 stands at 5.65

The observed pIC50 for CCCc1nn(C)c2c(=O)[nH]c(-c3cc(C(O)c4ccc(C(=O)NO)cc4)ccc3OCC)nc12 (stereo not given) when tested with UniProt:Q13547 stands at 6.47

The observed pIC50 for "CCCc1nn(C)c2c(=O)[nH]c(-c3cc(-c4ccc(C(=O)NO)s4)ccc3OCC)nc12" when tested with UniProt:Q13547 stands at 6.41

The observed pIC50 for "CCCc1nn(C)c2c(=O)[nH]c(-c3cc(C(=O)c4ccc(C(=O)NO)s4)ccc3OCC)nc12" when tested with UniProt:Q13547 stands at 6.56

The observed pIC50 for "CCCc1nn(C)c2c(=O)[nH]c(-c3cc([C@H]4CC[C@H](C(=O)NO)CC4)ccc3OCC)nc12" when tested with UniProt:Q13547 stands at 4.99
